Kindly supply the reported AC50 values for the records listed here.
# system name: CYP3A4 (Homo sapiens)
# Sequence (P08684 whole entry): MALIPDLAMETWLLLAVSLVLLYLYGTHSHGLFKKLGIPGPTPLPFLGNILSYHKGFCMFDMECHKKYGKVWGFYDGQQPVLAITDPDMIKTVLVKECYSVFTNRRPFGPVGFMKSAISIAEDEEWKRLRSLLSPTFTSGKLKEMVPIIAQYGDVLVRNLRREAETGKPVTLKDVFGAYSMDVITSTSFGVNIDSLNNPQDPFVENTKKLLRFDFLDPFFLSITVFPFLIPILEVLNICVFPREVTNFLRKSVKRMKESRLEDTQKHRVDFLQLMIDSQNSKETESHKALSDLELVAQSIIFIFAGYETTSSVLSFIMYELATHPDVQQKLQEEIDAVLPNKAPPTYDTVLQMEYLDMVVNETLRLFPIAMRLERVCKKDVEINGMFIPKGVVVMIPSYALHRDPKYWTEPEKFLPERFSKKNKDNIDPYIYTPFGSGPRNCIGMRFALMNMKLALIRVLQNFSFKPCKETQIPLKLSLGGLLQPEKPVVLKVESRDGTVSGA
# assay remarks: biochemical
# condition details: CYP3A4 AC50 (half-maximal activity concentration)
Phrase the answer as number then unit, nothing more needed.

The following molecules have reported results that may help.
Cc1ccc(Cl)c(Nc2ccccc2C(=O)O)c1Cl [Meclofenamate sodium] : 38.9 µM
Oc1c(Cl)c(Cl)c(Cl)c(Cl)c1Cl [Pentachlorophenol] : 54.4 µM
O=C(O)c1ccc(Cl)c(Cl)c1 [3,4-Dichlorobenzoic acid] : 59.7 µM

Each of the following entries comes with a recorded value; kindly state AC50 for each.
1. Cc1ccccc1OP(=O)(Oc1ccccc1C)Oc1ccccc1C [Tri-o-cresyl phosphate]
2. CC(C)N(Cc1ccccc1)C(=O)C(C)(C)C [Butam]
3. COP(=O)(OC)O/C(=C\Cl)c1cc(Cl)c(Cl)cc1Cl [Z-Tetrachlorvinphos]
4. CC(C)OC(=O)c1ccccc1C(=O)OC(C)C [Diisopropyl phthalate]
5. O=c1[nH]c2ccc([S+]([O-])CCN3CCC(Cc4ccc(F)cc4)CC3)cc2o1 (stereo not drawn) [Besonprodil]

Result:
["2.11 µM", "9.61 µM", "2.49 µM", "31.9 µM", "21.5 µM"]

Task: I would be grateful if you could share the reported AC50 for O=P(Oc1ccccc1)(Oc1ccccc1)Oc1ccccc1 [Triphenyl phosphate] .
Result: 6.42 µM

###

# collection of CYP2D6 AC50 (half-maximal activity concentration) values tested on human CYP2D6 (Homo sapiens, UniProt P10635)
# Sequence (P10635 whole entry): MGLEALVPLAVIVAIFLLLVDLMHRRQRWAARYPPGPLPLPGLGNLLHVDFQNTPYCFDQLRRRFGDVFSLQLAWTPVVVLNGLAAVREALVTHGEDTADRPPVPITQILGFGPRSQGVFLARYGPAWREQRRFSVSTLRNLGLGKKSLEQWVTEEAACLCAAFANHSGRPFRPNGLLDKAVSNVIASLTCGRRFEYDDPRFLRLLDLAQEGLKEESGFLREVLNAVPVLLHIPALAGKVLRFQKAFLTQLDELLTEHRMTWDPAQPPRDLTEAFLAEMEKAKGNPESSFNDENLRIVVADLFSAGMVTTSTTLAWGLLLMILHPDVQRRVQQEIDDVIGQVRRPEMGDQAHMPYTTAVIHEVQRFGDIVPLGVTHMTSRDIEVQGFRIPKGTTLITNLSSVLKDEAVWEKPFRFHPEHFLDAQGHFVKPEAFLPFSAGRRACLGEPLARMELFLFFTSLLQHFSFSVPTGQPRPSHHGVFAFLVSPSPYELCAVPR

C[C@]12CC[C@@H]3c4ccc(O)cc4CC[C@H]3[C@@H]1CC[C@@H]2O : Inactive
COC(=O)Nc1nc2ccc(C(=O)c3cccs3)cc2[nH]1 : Inconclusive inhibitor
NC(=O)Cc1cccc(C(=O)c2ccccc2)c1N : Inactive
N#CCCC(Br)(C#N)CBr (stereo not shown) : Inconclusive inhibitor
O=C(O)c1cccc(C(=O)O)c1 : Inactive

Each of the following entries comes with a recorded value; kindly state CYP2D6 AC50 (half-maximal activity concentration) for each.
1. O=C(CCCN1CCC(O)(c2ccc(Br)cc2)CC1)c1ccc(F)cc1
2. COC(=O)Nc1nc2ccc(C(=O)c3ccccc3)cc2[nH]1

Result:
["Inconclusive inhibitor", "Inactive"]

Each of the following entries comes with a recorded value; kindly state CYP2D6 AC50 (half-maximal activity concentration) for each.
1. CCc1cnc(C(=O)O)c(C(=O)O)c1
2. CCCCC/C(=C\c1ccccc1)CO

Result:
1: Inconclusive inhibitor; 2: Inconclusive inhibitor

Each of the following entries comes with a recorded value; kindly state CYP2D6 AC50 (half-maximal activity concentration) for each.
1. O=C(O)c1cc(I)cc(I)c1I
2. N#Cc1c(Cl)cccc1Cl
3. CN(C)C(=O)C(c1ccccc1)c1ccccc1
4. IC(I)=C(I)I

Result:
1. Inactive
2. Inactive
3. Inactive
4. Inactive

###

# system name: human CYP2C9 (Homo sapiens, UniProt P11712)
# Sequence (P11712 whole entry): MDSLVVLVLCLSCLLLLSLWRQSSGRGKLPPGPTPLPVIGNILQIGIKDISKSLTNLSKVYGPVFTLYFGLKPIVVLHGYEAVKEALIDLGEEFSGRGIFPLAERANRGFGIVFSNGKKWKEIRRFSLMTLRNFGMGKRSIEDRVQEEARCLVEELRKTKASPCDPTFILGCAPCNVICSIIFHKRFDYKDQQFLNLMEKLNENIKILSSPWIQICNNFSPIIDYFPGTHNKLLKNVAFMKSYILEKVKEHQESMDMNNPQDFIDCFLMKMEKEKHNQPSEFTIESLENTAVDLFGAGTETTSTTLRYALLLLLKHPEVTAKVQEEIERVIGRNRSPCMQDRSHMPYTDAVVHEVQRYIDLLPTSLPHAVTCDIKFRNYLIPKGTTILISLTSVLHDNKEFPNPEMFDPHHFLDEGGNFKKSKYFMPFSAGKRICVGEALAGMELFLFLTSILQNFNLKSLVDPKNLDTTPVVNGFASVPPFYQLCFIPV
result type: CYP2C9 AC50 (half-maximal activity concentration)

O=C(O)c1cc(C(=O)O)cc([N+](=O)[O-])c1 : Inactive
CC(C)(c1ccc(Oc2ccc3c(c2)C(=O)OC3=O)cc1)c1ccc(Oc2ccc3c(c2)C(=O)OC3=O)cc1 : Inconclusive inhibitor
CCCCCCCCCCCCCCCCC(C(=O)O)C(O)(CC(=O)O)C(=O)O (centres unmarked) : Inactive
O=C(O)CCCc1c[nH]c2ccccc12 : Inactive
CCCCC(C=O)CC (centres unmarked) : Inactive

Each of the following entries comes with a recorded value; kindly state CYP2C9 AC50 (half-maximal activity concentration) for each.
1. CCCCc1c(C)nc(NCC)[nH]c1=O
2. CNC(=O)Oc1ccccc1C(C)C

Result:
1. Inactive
2. Inconclusive inhibitor

Hey, just so you know, these numbers are from paper PMC12155096.
